Data origin, for the record: patent US10166216B2

Below, each entry is listed with its recorded IC50.
Molecular target: Axl (Homo sapiens (Human), UniProt P30530)
Sequence (P30530 26-894): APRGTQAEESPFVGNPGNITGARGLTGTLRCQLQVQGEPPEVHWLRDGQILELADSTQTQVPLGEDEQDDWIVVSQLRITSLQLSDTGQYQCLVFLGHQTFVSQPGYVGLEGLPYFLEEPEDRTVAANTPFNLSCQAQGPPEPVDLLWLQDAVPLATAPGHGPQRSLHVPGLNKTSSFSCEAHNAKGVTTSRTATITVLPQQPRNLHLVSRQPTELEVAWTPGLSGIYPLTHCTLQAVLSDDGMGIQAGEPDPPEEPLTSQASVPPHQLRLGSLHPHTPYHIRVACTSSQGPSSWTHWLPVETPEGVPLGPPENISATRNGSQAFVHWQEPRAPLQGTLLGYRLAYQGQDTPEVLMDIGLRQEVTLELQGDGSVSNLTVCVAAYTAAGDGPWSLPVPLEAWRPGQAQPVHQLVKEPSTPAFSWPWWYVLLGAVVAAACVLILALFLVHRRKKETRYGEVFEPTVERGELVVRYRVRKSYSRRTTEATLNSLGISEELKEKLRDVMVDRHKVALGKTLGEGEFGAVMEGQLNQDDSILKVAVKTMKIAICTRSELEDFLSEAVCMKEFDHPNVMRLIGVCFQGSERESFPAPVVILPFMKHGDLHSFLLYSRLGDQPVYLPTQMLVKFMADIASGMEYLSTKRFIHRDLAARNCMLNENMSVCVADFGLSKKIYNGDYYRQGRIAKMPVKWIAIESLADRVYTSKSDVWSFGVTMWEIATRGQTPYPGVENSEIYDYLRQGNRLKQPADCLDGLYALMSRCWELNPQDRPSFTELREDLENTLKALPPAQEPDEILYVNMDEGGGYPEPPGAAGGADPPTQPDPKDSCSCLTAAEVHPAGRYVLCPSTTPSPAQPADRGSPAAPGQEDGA
Assay: Phospho-Akt in-cell Western assay (Axl-antibody cross-linking stimulation)
Assay type: cell-based
Details: inhibition of Axl activity, phospho-Akt in-cell Western assay

Molecule	System tested	IC50
Cc1csc2c(-n3nc(Nc4ccc(N5CCN(C6CC7CCC6C7)CC5)cc4)nc3N)nc(-c3cccc(C#N)c3)nc12 (stereo not drawn) [Compound 234]	Axl (Homo sapiens (Human), UniProt P30530)	< 1000 nM
Cc1csc2c(-n3nc(Nc4ccc(N5CCN([C@H]6CC7CCC6C7)CC5)cc4)nc3N)nc(-c3ccccc3Cl)nc12 (stereo partly drawn) [Compound 235]	Axl (Homo sapiens (Human), UniProt P30530)	1000 to 10000 nM
Cc1cccc(-c2nc(-n3nc(Nc4ccc(N5CCN(C6CC7CCC6C7)CC5)cc4)nc3N)c3scc(C)c3n2)c1 (stereo not drawn) [Compound 233]	Axl (Homo sapiens (Human), UniProt P30530)	> 20000 nM
Nc1nc(Nc2ccc(N3CCN(C4CC5CCC4C5)CC3)cc2)nn1-c1ncnc2c1sc1ncccc12 (stereo not drawn) [Compound 184]	Axl (Homo sapiens (Human), UniProt P30530)	< 1000 nM
COc1cc2nc(Cl)nc(-n3nc(Nc4ccc(N5CCN(C6CC7CCC6C7)CC5)cc4)nc3N)c2cc1OC (stereo not drawn) [Compound 101]	Axl (Homo sapiens (Human), UniProt P30530)	1000 to 10000 nM
COc1cc2ncnc(-n3nc(Nc4ccc(N5CCN(C6C7CC8CC(C7)CC6C8)CC5)cc4)nc3N)c2cc1OC (stereo not drawn) [Compound 111]	Axl (Homo sapiens (Human), UniProt P30530)	> 20000 nM
Nc1nc(Nc2ccc(N3CCN(C4CC5CCC4C5)CC3)cc2)nn1-c1ccccn1 (stereo not drawn) [Compound 94]	Axl (Homo sapiens (Human), UniProt P30530)	1000 to 10000 nM
COc1cc2cnc(-n3nc(Nc4ccc(N5CCN(C6CCCCC6)CC5)c(F)c4)nc3N)nc2cc1OC [Compound 181]	Axl (Homo sapiens (Human), UniProt P30530)	< 1000 nM
Cc1nnc(-n2nc(Nc3ccc(N4CCN(C5CC6CCC5C6)CC4)cc3)nc2N)c2sccc12 (stereo not drawn) [Compound 198]	Axl (Homo sapiens (Human), UniProt P30530)	< 1000 nM
Cc1nc(-n2nc(Nc3ccc(N4CCN(C5CC6CCC5C6)CC4)cc3)nc2N)c2c(C)c(C)sc2n1 (stereo not drawn) [Compound 137]	Axl (Homo sapiens (Human), UniProt P30530)	1000 to 10000 nM
Cc1cc(N2CCN(C3CC4CCC3C4)CC2)ccc1Nc1nc(N)n(-c2nc(Cl)nc3c(C)csc23)n1 (stereo not drawn) [Compound 200]	Axl (Homo sapiens (Human), UniProt P30530)	1000 to 10000 nM
Nc1nc(Nc2ccc(N3CCN(C4CCCCC4)CC3)cc2)nn1-c1cc2c(nn1)-c1ccccc1CC2 [Compound 115]	Axl (Homo sapiens (Human), UniProt P30530)	1000 to 10000 nM
